- Test system: peptide-producing enzyme (Mono S fraction) from Empedobacter brevis strain FERM BP-8113
- MEASUREMENT_DESCRIPTION: Enzyme substrate specificity (1)-(10), (13), (14)
- Format: biochemical
- CONDITION_LABEL: β-amino acid ester as carboxy component or β-amino acid as amine component; 100 mM / 150 mM, pH 9.0, 25° C., 3 hours
# strict inequality: Produced peptide < 2 mM yields yes (1), everything else yields no (0)

MOLECULE	LABEL_CLASS
NCCC(=O)NC(CO)C(=O)O [β-Ala-L-Ser]	no (0)
C[C@@H](O)[C@H](N)C(=O)NCCC(=O)O [Thr-β-Ala]	no (0)
NCCC(=O)NCCC(=O)O [β-Ala-β-Ala]	yes (1)
NCC(=O)NC(CC(=O)O)c1ccccc1 (stereo not drawn) [Gly-β-Phe]	yes (1)
C[C@@H](O)[C@H](N)C(=O)NC(CC(=O)O)c1ccccc1 (stereo partly drawn) [Thr-β-Phe]	yes (1)
NCCC(=O)N[C@@H](CCC(N)=O)C(=O)O [β-Ala-L-Gln]	yes (1)
CC(N)C(=O)NCCC(=O)O (stereo not drawn) [Ala-β-Ala]	no (0)
CC(N)C(=O)NC(CC(=O)O)c1ccccc1 (stereo not drawn) [Ala-β-Phe]	yes (1)
NCC(=O)NCCC(=O)O [Gly-β-Ala]	no (0)
